biological target: HCoV-229E spike protein (Human coronavirus 229E, UniProt P15423); construct: purchased Acrobiosystems SPN-H52H3; assay: Microscale thermophoresis (MST) direct binding; details: NT647-labeled spike protein, PBS, triplicate
Sequence (P15423 16-1173): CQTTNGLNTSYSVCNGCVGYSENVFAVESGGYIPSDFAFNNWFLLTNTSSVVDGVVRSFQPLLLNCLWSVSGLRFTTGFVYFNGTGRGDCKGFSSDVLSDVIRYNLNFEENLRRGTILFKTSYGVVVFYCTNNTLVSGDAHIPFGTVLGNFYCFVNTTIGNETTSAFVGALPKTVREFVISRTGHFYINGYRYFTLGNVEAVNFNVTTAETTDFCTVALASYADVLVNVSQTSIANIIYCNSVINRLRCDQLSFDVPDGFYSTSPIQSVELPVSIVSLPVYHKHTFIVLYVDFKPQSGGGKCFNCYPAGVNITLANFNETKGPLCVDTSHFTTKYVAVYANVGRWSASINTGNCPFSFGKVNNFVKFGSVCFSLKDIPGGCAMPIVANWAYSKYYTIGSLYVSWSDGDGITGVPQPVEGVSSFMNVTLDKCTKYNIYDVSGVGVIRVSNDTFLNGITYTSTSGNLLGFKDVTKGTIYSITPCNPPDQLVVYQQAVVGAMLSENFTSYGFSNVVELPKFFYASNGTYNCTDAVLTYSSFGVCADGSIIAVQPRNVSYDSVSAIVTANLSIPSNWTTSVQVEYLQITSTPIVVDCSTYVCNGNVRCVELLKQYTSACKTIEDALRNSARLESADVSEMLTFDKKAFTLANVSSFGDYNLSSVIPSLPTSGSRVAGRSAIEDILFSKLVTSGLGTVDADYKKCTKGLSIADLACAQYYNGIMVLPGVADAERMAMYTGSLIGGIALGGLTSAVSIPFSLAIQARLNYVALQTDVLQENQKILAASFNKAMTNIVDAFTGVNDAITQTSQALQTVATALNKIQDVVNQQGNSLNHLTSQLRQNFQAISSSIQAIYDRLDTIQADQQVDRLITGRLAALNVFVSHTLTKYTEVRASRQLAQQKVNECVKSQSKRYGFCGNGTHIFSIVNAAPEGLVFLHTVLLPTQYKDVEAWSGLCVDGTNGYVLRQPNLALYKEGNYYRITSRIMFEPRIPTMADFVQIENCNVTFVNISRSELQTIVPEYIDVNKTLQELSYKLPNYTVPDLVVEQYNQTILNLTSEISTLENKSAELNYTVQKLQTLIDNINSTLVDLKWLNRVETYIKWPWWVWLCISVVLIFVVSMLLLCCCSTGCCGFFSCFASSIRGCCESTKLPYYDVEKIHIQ
Non-standard residues stand in square brackets, D forms with d. Residues, ends and D or L forms follow the SMILES beside them. NMeH = CN[C@@H](Cc1c[nH]cn1)C(=O)O; Gly(N-CH2CH2OH) = O=C(O)CNCCO; NMeL = CN[C@@H](CC(C)C)C(=O)O
Below, each of the molecules is paired with its reported pKd value.
When answering, recall that pKd equals minus log10 of the concentration in mol/L, and write that number alone.

Solved entries (count: 4):
1) CC(=O)N[C@@H](CO)C(=O)N[C@@H](CCCCN)C(=O)N[C@@H](Cc1c[nH]cn1)C(=O)N(CCO)CC(N)=O [Compound 6, SKHNhS] (Ac-SKH[Gly(N-CH2CH2OH)]-NH2) ... 4.96
2) CC(=O)N[C@@H](CO)C(=O)N(C)[C@@H](CC(C)C)C(=O)N[C@@H](CC(=O)O)C(=O)N[C@@H](CS)C(N)=O [Compound 4, S(N-Me)LDC] (Ac-S[NMeL]DC-NH2) ... 5.59
3) CC(=O)N[C@@H](CO)C(=O)N[C@@H](CC(C)C)C(=O)N[C@@H](CC(=O)O)C(=O)N[C@@H](CS)C(N)=O [Compound 1, SLDC] (Ac-SLDC-NH2) ... 5.31
4) CC(=O)N[C@@H](CO)C(=O)N[C@@H](CCCCN)C(=O)N(C)[C@@H](Cc1c[nH]cn1)C(=O)N[C@@H](CO)C(N)=O [Compound 3, SK(N-Me)HS] (Ac-SK[NMeH]S-NH2) ... 6.41

Briefly, pKd measured for CC(=O)N[C@@H](CO)C(=O)N[C@@H](CCCCN)C(=O)N[C@@H](Cc1c[nH]cn1)C(=O)N[C@@H](CO)C(N)=O [Compound 2, SKHS] (Ac-SKHS-NH2) : 5.29

----------
biological target: HCoV-229E spike protein (Human coronavirus 229E); construct: purchased Acrobiosystems SPN-H52H3; experiment: Surface plasmon resonance (SPR) direct binding; conditions: spike immobilized on CM5 chip, HBS-P+ buffer, 25 °C, 1:1 model, koff/kon
Non-standard residues stand in square brackets, D forms with d. Residues, ends and D or L forms follow the SMILES beside them. NMeH = CN[C@@H](Cc1c[nH]cn1)C(=O)O; Gly(N-CH2CH2OH) = O=C(O)CNCCO; NMeL = CN[C@@H](CC(C)C)C(=O)O
Below, each of the compounds is paired with its reported Kd value.
Supply the numeric figure in nM, leaving out any unit text.

1. CC(=O)N[C@@H](CO)C(=O)N[C@@H](CCCCN)C(=O)N[C@@H](Cc1c[nH]cn1)C(=O)N[C@@H](CO)C(N)=O [Compound 2, SKHS] (Ac-SKHS-NH2) ... 41400

Briefly, Kd measured for CC(=O)N[C@@H](CO)C(=O)N[C@@H](CCCCN)C(=O)N(C)[C@@H](Cc1c[nH]cn1)C(=O)N[C@@H](CO)C(N)=O [Compound 3, SK(N-Me)HS] (Ac-SK[NMeH]S-NH2) : 416

Briefly, Kd measured for CC(=O)N[C@@H](CO)C(=O)N[C@@H](CCCCN)C(=O)N[C@@H](Cc1c[nH]cn1)C(=O)N(CCO)CC(N)=O [Compound 6, SKHNhS] (Ac-SKH[Gly(N-CH2CH2OH)]-NH2) : 1510

Briefly, Kd measured for CC(=O)N[C@@H](CO)C(=O)N(C)[C@@H](CC(C)C)C(=O)N[C@@H](CC(=O)O)C(=O)N[C@@H](CS)C(N)=O [Compound 4, S(N-Me)LDC] (Ac-S[NMeL]DC-NH2) : 1150
